experimental protocol: Volume of distribution at steady state in Cynomolgus monkey at 1 mg/kg, iv by LC-MS/MS analysis
Assay type: ADME, organism-based, Macaca fascicularis
recorded conditions: in vivo, read-out: Vdss
observable: Vd (L/kg)
Write the answer as a number in L/kg, unit excluded.

Given item "Cc1nc(C)c([C@H](OC(C)(C)C)C(=O)O)c(N2CCC(C)(C)CC2)c1-c1ccc(OCCc2ccc(F)cc2)cc1" , the value recorded as its Vd is 1.5

====

experimental protocol: Cmax in CD-1 mouse at 5 mg/kg, po by LC-MS/MS analysis
Assay type: ADME, organism-based
Set-up: route oral, dose 5 mg/kg
recorded conditions: in vivo
observable: Cmax (nM)
Could you give me the number in nM? Just the number is fine.

Documented Cmax of "Cc1nc(C)c([C@H](OC(C)(C)C)C(=O)O)c(N2CCC(C)(C)CC2)c1-c1ccc(OCCc2ccc(F)cc2)cc1" : 2360

====

Test system: Human immunodeficiency virus 1
experimental protocol: Antiviral activity against recombinant HIV1 NLRep-Rluc harbouring polymorphic AT infected in human MT-2 cells assessed as inhibition of virus growth in presence of fetal bovine serum by measuring luciferase activity after 5 days
Assay type: functional, organism-based
recorded conditions: Human immunodeficiency virus 1, NLRep, MT2, 120 h
observable: pEC50
pEC50 here: minus log base 10 of the concentration, concentration in moles per litre.

Example compounds with recorded pEC50:
compound | pEC50
Cc1nc(C)c([C@H](OC(C)(C)C)C(=O)O)c(N2CCC(C)(C)CC2)c1-c1ccc(OCCc2ccc(F)c(F)c2)cc1 | 8.57
Cc1nc(C)c([C@H](OC(C)(C)C)C(=O)O)c(N2CCC(C)(C)CC2)c1-c1ccc(OC2COCC2c2ccc(F)cc2)cc1 (stereo in doubt; 40b) | 8.89
Cc1ncsc1CCOc1ccc(-c2c(C)nc(C)c([C@H](OC(C)(C)C)C(=O)O)c2N2CCC(C)(C)CC2)cc1 | 9.00
Cc1nc(C)c([C@H](OC(C)(C)C)C(=O)O)c(N2CCC(C)(C)CC2)c1-c1ccc(OCCc2ccc(F)cc2)cc1 | 8.29

Now for the compound whose pEC50 we want.
Per the records, this compound ( Cc1nc2ccccc2c(-c2ccc3c4c(ccnc24)CCO3)c1[C@H](OC(C)(C)C)C(=O)O [BI-224436] ) has pEC50 equal to 7.31

====

Measured half-life at 0.5 µM, listed per entry for reference.
experimental protocol: Metabolic stability in human liver microsome assessed half life at 0.5 uM by LC-MS/MS analysis
Type: ADME
recorded conditions: liver microsomes
Hi! Could you send only the number? It should be in h, unit omitted.

Answered cases to consult:
structure as smiles | reading unit | half-life at 0.5 µM
Cc1nc(C)c([C@H](OC(C)(C)C)C(=O)O)c(N2CCC(C)(C)CC2)c1-c1ccc(OCCc2ccccn2)cc1 | h | 0.5
Cc1ncsc1CCOc1ccc(-c2c(C)nc(C)c([C@H](OC(C)(C)C)C(=O)O)c2N2CCC(C)(C)CC2)cc1 | h | 1.5

Next:
Entry "Cc1nc(C)c([C@H](OC(C)(C)C)C(=O)O)c(N2CCC(C)(C)CC2)c1-c1ccc(OCCc2ccc(F)cc2)cc1" , half-life at 0.5 µM reported as 1.42

====

Test system: CYP
experimental protocol: Half life in dog assessed as CYP mediated metabolism in presence of […] by phase I metabolic oxidation assay
Format: ADME, Canis lupus familiaris
observable: half-life

half-life measured on "Cc1nc(C)c([C@H](OC(C)(C)C)C(=O)O)c(N2CCC(C)(C)CC2)c1-c1ccc(OCCc2ccc(F)cc2)cc1" = > 2 h

Entry source: ChEMBL document CHEMBL5046290
